TARGET_OR_SYSTEM: histamine H2-receptors (Cavia porcellus, UniProt P47747)
Construct: isolated guinea pig atria suspended in an organ bath; from tissue; host or cells: isolated guinea pig atria
Sequence (P47747 whole entry): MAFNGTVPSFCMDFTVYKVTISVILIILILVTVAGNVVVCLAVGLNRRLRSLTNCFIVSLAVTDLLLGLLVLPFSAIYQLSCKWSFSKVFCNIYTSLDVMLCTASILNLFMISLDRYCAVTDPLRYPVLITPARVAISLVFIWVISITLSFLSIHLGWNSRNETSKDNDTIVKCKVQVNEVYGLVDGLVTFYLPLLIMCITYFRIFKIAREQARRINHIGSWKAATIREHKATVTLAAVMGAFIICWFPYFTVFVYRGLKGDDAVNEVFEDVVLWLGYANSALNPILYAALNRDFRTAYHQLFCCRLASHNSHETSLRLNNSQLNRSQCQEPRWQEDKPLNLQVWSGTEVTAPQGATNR
EXPERIMENT: In vitro inhibitory activity in histamine-induced tachycardia (positive chronotropic effect, isolated guinea pig atria)
Format: cell-based
TEST_SETTINGS: reduction of histamine (10^-6 g/ml) H2-evoked response, pH 7.4, 32° C.
Could you mark each record Satisfied if its EC50 falls strictly under 100 nM, and Not satisfied if it equals or exceeds it?

Some solved cases for reference:
[
  {
    "COMPOUND": "CC(C)CNC=Nc1ccc(-c2c[nH]cn2)cc1 [F]",
    "LABEL": "Satisfied"
  },
  {
    "COMPOUND": "C=CC(C)NC=Nc1ccc(-c2c[nH]cn2)cc1 (stereo not drawn) [J]",
    "LABEL": "Not satisfied"
  },
  {
    "COMPOUND": "C(=Nc1ccc(-c2c[nH]cn2)cc1)NCC1CC1 [H]",
    "LABEL": "Satisfied"
  },
  {
    "COMPOUND": "CC(C)(C)CNC=Nc1ccc(-c2c[nH]cn2)cc1 [K]",
    "LABEL": "Not satisfied"
  }
]

Just wondering, is EC50 of CC(C)NC=Nc1ccc(-c2c[nH]cn2)cc1 [B] below 100 nM?
Satisfied

Just wondering, is EC50 of C=CCNC=Nc1ccc(-c2c[nH]cn2)cc1 [C] below 100 nM?
Satisfied

---

TARGET_OR_SYSTEM: histamine H2-receptors (Rattus norvegicus, UniProt P25102)
Construct: from tissue; host or cells: stomach of the anaesthetised rat, in vivo
Sequence (P25102 whole entry): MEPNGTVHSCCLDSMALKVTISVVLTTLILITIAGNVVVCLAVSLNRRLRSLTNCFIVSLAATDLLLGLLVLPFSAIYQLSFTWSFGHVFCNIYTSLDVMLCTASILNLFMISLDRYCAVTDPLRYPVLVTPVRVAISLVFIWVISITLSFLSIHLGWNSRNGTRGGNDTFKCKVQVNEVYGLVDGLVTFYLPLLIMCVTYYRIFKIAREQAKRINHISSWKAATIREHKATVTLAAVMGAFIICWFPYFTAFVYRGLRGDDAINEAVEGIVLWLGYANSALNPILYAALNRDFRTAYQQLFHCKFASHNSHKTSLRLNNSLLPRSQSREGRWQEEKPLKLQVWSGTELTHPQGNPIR
EXPERIMENT: In vivo anti-secretory activity in histamine-induced gastric secretion (stomach perfused rat)
TEST_SETTINGS: iv; stomach perfused rat, histamine 1 mg/kg.hr i.v.; expressed with regard to the compound as a base; read-out: ED50
READOUT_LABEL: ED50 (mg/kg)
Give your result in mg/kg as a bare value.

[
  {
    "MOLECULE": "C(=Nc1ccc(-c2c[nH]cn2)cc1)NC1CC1 [I]",
    "TARGET_OR_SYSTEM": "histamine H2-receptors (Rattus norvegicus, UniProt P25102)",
    "OBSERVED_MEASUREMENT": 0.0366
  },
  {
    "MOLECULE": "CC(C)CNC=Nc1ccc(-c2c[nH]cn2)cc1 [F]",
    "TARGET_OR_SYSTEM": "histamine H2-receptors (Rattus norvegicus, UniProt P25102)",
    "OBSERVED_MEASUREMENT": 0.0259
  },
  {
    "MOLECULE": "CC(C)=CCNC=Nc1ccc(-c2c[nH]cn2)cc1 [G]",
    "TARGET_OR_SYSTEM": "histamine H2-receptors (Rattus norvegicus, UniProt P25102)",
    "OBSERVED_MEASUREMENT": 0.0559
  },
  {
    "MOLECULE": "CC1(C)CC1CNC=Nc1ccc(-c2c[nH]cn2)cc1 (stereo not drawn) [L]",
    "TARGET_OR_SYSTEM": "histamine H2-receptors (Rattus norvegicus, UniProt P25102)",
    "OBSERVED_MEASUREMENT": 0.034
  },
  {
    "MOLECULE": "CCCNC=Nc1ccc(-c2c[nH]cn2)cc1 [D]",
    "TARGET_OR_SYSTEM": "histamine H2-receptors (Rattus norvegicus, UniProt P25102)",
    "OBSERVED_MEASUREMENT": 0.0111
  }
]

Record summary for CC(C)(C)CNC=Nc1ccc(-c2c[nH]cn2)cc1 [K] : reported ED50 = 0.03

Record summary for CC(C)NC=Nc1ccc(-c2c[nH]cn2)cc1 [B] : reported ED50 = 0.0129

Record summary for CCNC=Nc1ccc(-c2c[nH]cn2)cc1 [Compound A] : reported ED50 = 0.02

Record summary for C(=Nc1ccc(-c2c[nH]cn2)cc1)NCC1CC1 [H] : reported ED50 = 0.0235

Record summary for C=CCNC=Nc1ccc(-c2c[nH]cn2)cc1 [C] : reported ED50 = 0.024

Record summary for C=CC(C)NC=Nc1ccc(-c2c[nH]cn2)cc1 (stereo not drawn) [J] : reported ED50 = 0.042

Record summary for CCC(C)NC=Nc1ccc(-c2c[nH]cn2)cc1 (stereo not drawn) [Compound E] : reported ED50 = 0.0223

---

Documented EC50 across a set of molecules
TARGET_OR_SYSTEM: histamine H2-receptors (Cavia porcellus)
Construct: isolated guinea pig atria suspended in an organ bath; from tissue; host or cells: isolated guinea pig atria
EXPERIMENT: In vitro inhibitory activity in histamine-induced tachycardia (positive chronotropic effect, isolated guinea pig atria)
Type: cell-based
TEST_SETTINGS: reduction of histamine (10^-6 g/ml) H2-evoked response, pH 7.4, 32° C.
Give your result in nM as a bare value.

[
  {
    "MOLECULE": "C(=Nc1ccc(-c2c[nH]cn2)cc1)NC1CC1",
    "READOUT_LABEL": "EC50",
    "OBSERVED_MEASUREMENT": 379
  },
  {
    "MOLECULE": "CC(C)=CCNC=Nc1ccc(-c2c[nH]cn2)cc1",
    "READOUT_LABEL": "EC50",
    "OBSERVED_MEASUREMENT": 74
  },
  {
    "MOLECULE": "CCCNC=Nc1ccc(-c2c[nH]cn2)cc1",
    "READOUT_LABEL": "EC50",
    "OBSERVED_MEASUREMENT": 44
  },
  {
    "MOLECULE": "CCC(C)NC=Nc1ccc(-c2c[nH]cn2)cc1 (stereo not drawn)",
    "READOUT_LABEL": "EC50",
    "OBSERVED_MEASUREMENT": 150
  },
  {
    "MOLECULE": "CC1(C)CC1CNC=Nc1ccc(-c2c[nH]cn2)cc1 (stereo not drawn)",
    "READOUT_LABEL": "EC50",
    "OBSERVED_MEASUREMENT": 500
  }
]

Record summary for CCNC=Nc1ccc(-c2c[nH]cn2)cc1 : reported EC50 = 300

All figures here come from patent US4386099A.
